System: HepG2
Experiment: cytotoxicity call (relative viability < 0.9)
Conditions: 10 µM
In all, about 39,000 compounds went through this assay and about 3,300 (8.5%) were called active. Many of the other results were omitted from the sample, so actives are more common in it than they were.
I would appreciate it if you answered using one of these outcomes: 1 (active), 0 (inactive)

C[C@@H]1CCCCO[C@@H](CN(C)S(=O)(=O)c2cccs2)[C@@H](C)CN([C@@H](C)CO)C(=O)c2cc(NS(=O)(=O)c3ccc(Cl)cc3)ccc2O1 | 1

Query: Recorded test call requested for CC(C)(C)[S@@](=O)N1Cc2cc(C(=O)N3CCCCC3)nc(-c3cccc(-c4ccccc4F)c3)c2[C@H]1CCO
Result: 0

Query: Recorded test call requested for C[C@@H]1CCCCO[C@@H](CN(C)Cc2ccc(C(F)(F)F)cc2)[C@@H](C)CN([C@H](C)CO)C(=O)c2cc(NC(=O)Nc3ccc(F)cc3)ccc2O1
Result: 0

Query: Recorded test call requested for C[C@@H]1CN([C@@H](C)CO)C(=O)c2ccccc2-c2ccccc2CO[C@@H]1CN(C)Cc1ccc(-c2ccccc2)cc1
Result: 0

Query: Recorded test call requested for C[C@H]1CN([C@@H](C)CO)S(=O)(=O)c2ccc(C#CC3CCCC3)cc2O[C@H]1CN(C)Cc1cncnc1
Result: 0

Query: Recorded test call requested for C[C@H]1CCCCO[C@@H](CN(C)S(=O)(=O)c2cccs2)[C@@H](C)CN([C@@H](C)CO)C(=O)c2cc(NS(=O)(=O)c3ccc(Cl)cc3)ccc2O1
Result: 0

Query: Recorded test call requested for O=c1cn[nH]c(NC2CCCC2)n1
Result: 0

Query: Recorded test call requested for CC(C)(C)S(=O)N1Cc2cc(C(=O)N3CCN(Cc4ccccc4)CC3)nc(-c3cccc(-c4cc5ccccc5o4)c3)c2[C@H]1CCO (stereo partly drawn)
Result: 1

Query: Recorded test call requested for C[C@@H]1CCCCO[C@@H](CN(C)S(=O)(=O)c2cccs2)[C@@H](C)CN([C@H](C)CO)C(=O)c2cc(NS(=O)(=O)c3ccc(Cl)cc3)ccc2O1
Result: 0

Query: Recorded test call requested for C[C@@H]1CCCCO[C@H](CN(C)Cc2ccc(C(F)(F)F)cc2)[C@@H](C)CN([C@H](C)CO)C(=O)c2cc(NC(=O)Nc3ccc(F)cc3)ccc2O1
Result: 0

Query: Recorded test call requested for C[C@@H]1CN([C@@H](C)CO)C(=O)CCCn2cc(nn2)CO[C@H]1CN(C)C(=O)Nc1ccc2c(c1)OCCO2
Result: 0

Query: Recorded test call requested for C[C@H]1CN([C@@H](C)CO)S(=O)(=O)c2ccc(C#Cc3ccncc3)cc2O[C@@H]1CN(C)C(=O)Nc1ccc2c(c1)OCO2
Result: 1

Reference for the values: the antibiotic and cytotoxicity screens of Wong et al. (2023)
